Tested on: U2OS
Test: Incucyte cell viability with U2OS; also: unitless GR value; below 1 slowed growth and below 0 cell loss
Format: toxicity, cell-based
Conditions: human, 6 h, 10 µM, compound concentration 10 uM, replicate number 1, timepoint 6 hours
Outcome measure: Growth Rate

The following compounds have reported results that may help.
# Compound, Growth Rate
rows = [
    ("CC(C)c1cc(-c2ccc(F)c3ccccc23)nc(N)n1", 0.62),
    ("Cn1cc(-c2ccc3occ(-c4cccc(-c5ccncc5)c4)c3n2)cn1", -0.02),
    ("CC(C)c1cc(Oc2c(Cl)cc(-n3nc(C#N)c(=O)[nH]c3=O)cc2Cl)n[nH]c1=O [RESMETIROM]", 0.7),
    ("OCc1cc(C(O)CNCCCCCCOCCCCc2ccccc2)ccc1O (configuration not stated) [SALMETEROL]", 0.56),
    ("COc1c(C)cc(NC(=O)c2nn(Cc3ccc(F)cc3)c3c2CN(C(=O)c2ccc[nH]2)C[C@]3(C)C(N)=O)cc1C", 0.56),
    ("Br.Oc1cc2c(cc1O)C(c1ccccc1)CNCC2 (configuration not stated)", 0.49),
]

Query block: Name the recorded Growth Rate for CO/C1=C/C(C)=C\[C@@H](C)[C@@H](O)[C@@H](C)C/C(C)=C\C=C/[C@H](OC)C([C@@H](C)[C@@H](O)[C@H](C)[C@@]2(O)C[C@@H](O)[C@H](C)[C@@H](C(C)C)O2)OC1=O (some centres not stated) .
Result block: 0.5

Query block: Name the recorded Growth Rate for C[C@H]1CN(C[C@H](Cc2ccccc2)C(=O)NCC(=O)O)CC[C@@]1(C)c1cccc(O)c1 [ALVIMOPAN] .
Result block: 0.22

Query block: Name the recorded Growth Rate for `COc1ccccc1N1CCN(CCCCNC(=O)c2ccc3ccccc3c2)CC1.Cl` .
Result block: 0.51

Query block: Name the recorded Growth Rate for Cc1sc2c(c1C)C(c1ccc(Cl)cc1)=N[C@@H](CC(=O)NCCCCCCCCNC(=O)COc1cccc3c1C(=O)N(C1CCC(=O)NC1=O)C3=O)c1nnc(C)n1-2 (some centres not stated) .
Result block: 0.38

Query block: Name the recorded Growth Rate for `CN(C)C(=O)Cn1cc(-c2ccc(-c3nnc4ccccn34)cc2)cn1` .
Result block: 0.68

Query block: Name the recorded Growth Rate for CN(C(=O)/C=C/c1ccoc1)[C@@H]1CC[C@@]2(O)[C@H]3Cc4ccc(O)c5c4[C@@]2(CCN3CC2CC2)[C@H]1O5 [NALFURAFINE] .
Result block: 0.82

Query block: Name the recorded Growth Rate for COC(=O)N1CCN(C(=O)Cc2ccc(Cl)c(Cl)c2)C(CN2CCCC2)C1.O=C(O)/C=C/C(=O)O (configuration not stated) .
Result block: 0.36

Query block: Name the recorded Growth Rate for Cl.Clc1ccc2nsnc2c1NC1=NCCN1 [TIZANIDINE HYDROCHLORIDE] .
Result block: 0.31

Query block: Name the recorded Growth Rate for Nc1ncnc2c1ncn2[C@@H]1O[C@H](CO)[C@@H](O)[C@H]1O [ADENOSINE] .
Result block: 0.47

Query block: Name the recorded Growth Rate for `CN(C)c1ccnc2sc3c(=O)n(N4CCCCCC4)cnc3c12` .
Result block: 0.61

Query block: Name the recorded Growth Rate for `O=C1[C@H](Cc2ccc(O)cc2)N2C(=O)CCN(C(=O)NCc3ccccc3)[C@H]2CN1Cc1cccc2ccccc12` .
Result block: 0.4
